PROTOCOL DESCRIPTION: Cytotoxicity against mouse L5178Y TK+/- suspension cells incubated for 72 hrs by Cell-titer-Glo reagent based assay
RECORDED CONDITIONS: read-out: TC50
ENDPOINT: CC50 at 72 h

STRUCTURE NOTATION	CC50 at 72 h
CC(C)Oc1ccc(CN(CCC(N)=O)C(=O)c2cnn(Cc3ccccc3)c2-c2ccc3sccc3c2)cc1	25 µM

Quick one: CC50 at 72 h for Cc1ccc(-c2c(C(=O)N(CCC(N)=O)Cc3ccc(OC(C)C)cc3)cnn2Cc2ccccc2)cc1 ? 100 µM

---

PROTOCOL DESCRIPTION: Inhibition of N-terminal FLAG-tagged and C-terminal SBP-tagged Staphylococcus aureus recombination UppS assessed as reduction in IPP condensation to growing prenyl chain by measuring pyrophosphate production incubated for 30 mins
ENDPOINT: IC50 (nM)
Enter your answer as a number in nM; do not include the unit.

STRUCTURE NOTATION	IC50 (nM)
Cc1ccc(-c2c(C(=O)N(CCC(N)=O)Cc3ccc(OC(C)C)cc3)cnn2Cc2ccccc2)cc1	970

Moving on to another compound below.
Quick one: IC50 for CC(C)Oc1ccc(CN(CCC(N)=O)C(=O)c2cnn(Cc3ccccc3)c2-c2ccc3sccc3c2)cc1 ? 190

---

System: Klebsiella pneumoniae
PROTOCOL DESCRIPTION: Antibacterial activity against Klebsiella pneumoniae 1161486a deficient in tolC incubated for 18 to 24 hrs by broth microdilution method
Format: functional
Let's look at some compounds and their measured MIC.

Some compounds with recorded MIC:
STRUCTURE NOTATION	REPORTED VALUE
O=C(O)c1cn(C2CC2)c2cc(N3CCNCC3)c(F)cc2c1=O	≤ 0.008 µg/mL
C[C@@H](O)[C@H]1C(=O)N2C(C(=O)O)=C(S[C@@H]3CN[C@H](C(=O)N(C)C)C3)[C@H](C)[C@H]12	0.03 µg/mL
CC(C)Oc1ccc(CN(CCC(N)=O)C(=O)c2cnn(Cc3ccccc3)c2-c2ccc3sccc3c2)cc1	> 128 µg/mL

Moving on to another compound below.
Quick one: MIC for Cc1ccc(-c2c(C(=O)N(CCC(N)=O)Cc3ccc(OC(C)C)cc3)cnn2Cc2ccccc2)cc1 ? > 128 µg/mL

---

SYSTEM UNDER TEST: Ditrans,polycis-undecaprenyl-diphosphate synthase ((2E,6E)-farnesyl-diphosphate specific) (Klebsiella pneumoniae, UniProt A0A080SPQ8)
Sequence (A0A080SPQ8 whole entry): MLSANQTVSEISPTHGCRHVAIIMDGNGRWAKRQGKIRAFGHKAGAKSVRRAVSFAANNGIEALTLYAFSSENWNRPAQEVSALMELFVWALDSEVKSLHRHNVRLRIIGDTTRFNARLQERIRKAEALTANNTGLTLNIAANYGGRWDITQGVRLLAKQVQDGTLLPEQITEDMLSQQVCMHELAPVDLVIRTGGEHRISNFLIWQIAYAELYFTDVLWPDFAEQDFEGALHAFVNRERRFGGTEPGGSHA
PROTOCOL DESCRIPTION: Inhibition of hexa-histidine tagged Klebsiella pneumoniae UppS expressed in Escherichia coli assessed as reduction in IPP condensation to growing prenyl chain by measuring pyrophosphate production
pIC50: −log10 of the molar value.
ENDPOINT: pIC50

STRUCTURE NOTATION	pIC50
CC(C)Oc1ccc(CN(CCC(N)=O)C(=O)c2cnn(Cc3ccccc3)c2-c2ccc3sccc3c2)cc1	< 4.00

Moving on to another molecule below.
Quick one: pIC50 for Cc1ccc(-c2c(C(=O)N(CCC(N)=O)Cc3ccc(OC(C)C)cc3)cnn2Cc2ccccc2)cc1 ? < 4.00

---

Let's look at some compounds and their measured MIC.
Tested on: Escherichia coli
PROTOCOL DESCRIPTION: Antibacterial activity against Escherichia coli 120 deficient in AcrAB incubated for 18 to 24 hrs by broth microdilution method
Assay type: functional

COMPOUND	SYSTEM UNDER TEST	REPORTED VALUE
Cc1ccc(-c2c(C(=O)N(CCC(N)=O)Cc3ccc(OC(C)C)cc3)cnn2Cc2ccccc2)cc1	Escherichia coli	> 128 µg/mL
C[C@@H](O)[C@H]1C(=O)N2C(C(=O)O)=C(S[C@@H]3CN[C@H](C(=O)N(C)C)C3)[C@H](C)[C@H]12 [MEROPENEM]	Escherichia coli	0.03 µg/mL
CC(C)Oc1ccc(CN(CCC(N)=O)C(=O)c2cnn(Cc3ccccc3)c2-c2ccc3sccc3c2)cc1	Escherichia coli	> 128 µg/mL

Quick one: MIC for O=C(O)c1cn(C2CC2)c2cc(N3CCNCC3)c(F)cc2c1=O [CIPROFLOXACIN] ? ≤ 0.008 µg/mL
